Test target: Luciferin 4-monooxygenase (Photuris pensylvanica)
Experimental protocol: Counterscreen for Luciferase (Kinase-Glo TM) Inhibition; note: % is set by controls: 0 for no effect and ±100 for the full control effect; nearly all actives have a fitted effect of over 60% in size
Run parameters: ATP luminescence, 8 min; series mostly up to 38.3 µM
Out of some 200,000 compounds screened, about 560 (0.28%) were called active. This is one part of a sample in which actives are shown more often than they occur.

Compound	activity change, negative = inhibition
C=CC1=C2C=C(C3CC3)N(CC(C)C)C=C2C(=O)C(C)(OC(=O)c2ccco2)C1=O (stereo not given)	-1.36% [at 7.66 µM] (inactive)
COC(C)C(C(=O)OCC1=CCN2CC[C@H](O)[C@@H]12)C(C)C (stereo not given in full)	inactive
COc1ccccc1CNC(=O)c1ccc(SC)cc1OC	inactive
CC(=O)CC(c1ccccc1)C1C(=O)Oc2ccccc2C1=O (stereo not given)	inactive
Cc1cn(C2OC[C@@H](O)[C@@H]2CO)c(=O)[nH]c1=O (stereo not given in full)	inactive
COC(=O)C1=C(C(=O)OC)[C@@H]2N(C)c3ccccc3[C@@]23C[C@@H](C(=O)OC)N(C(=O)c2ccco2)C3=N1	-2.48% [at 7.66 µM] (inactive)
COc1cccc(CC(=O)N2CCc3nc(COc4ccccc4)c4c(c3C2)CO[C@@H](C)C4)c1	-3.82% [at 7.66 µM] (inactive)
CCCCCCCC1=Cc2ccc(F)cc2C(C(C(=O)OC)C(=O)OC)N1C(=O)OC (stereo not given)	inactive
O=C(Oc1ccccc1)c1ccc2nccnc2c1	inactive
C=C1c2cccc(OC)c2O[C@H](C(=O)OCC)[C@@H]1CCCCCC	inactive
COc1cccc(/C=N/NC(=O)c2[nH]nc3c2CCc2ccccc2-3)c1O	inactive
C=CCN1c2ccccc2[C@]23C[C@@H](C(=O)OC)N(S(=O)(=O)c4ccc([N+](=O)[O-])cc4)C2=NC(C(=O)OC)=C(C(=O)OC)[C@H]13	-1.89% [at 7.66 µM] (inactive)
O=C(O)C1CCCN(CCC=C(c2ccccc2)c2ccccc2)C1 (stereo not given)	inactive
COC(=O)C1(C(C)=O)CC2=CC[C@H]3C(=O)N(c4ccccc4)C(=O)[C@H]3[C@@H]2Cc2ccccc2[C@@H]1C[N+](=O)[O-] (stereo not given in full)	inactive
COc1ccc(-c2csc(Nc3ccccn3)n2)cc1	inactive
CCN1C(=O)N[C@@H](c2ccccc2)C(C(=O)OC)=C1C	-0.704% [at 7.66 µM] (inactive)
COC(=O)N1C(/C=C/C=C/c2ccc(OC)cc2)=Cc2ccccc2C1CC(C)=O (stereo not given)	-3.85% [at 7.66 µM] (inactive)
CC[C@@]12C=C(/C=C/c3ccccc3)[C@](CC)(C1)[C@H](c1ccccc1)CC2=O	inactive
C=C(C(C)=O)C(O)c1cccs1 (stereo not given)	inactive
COc1cccc(-c2cc(=O)c3cc(NC(=O)c4ccc(C)cc4)ccc3[nH]2)c1	inactive
COC(=O)CCCC1=CC2=CC(=O)C(C)(OC(=O)c3cccs3)C(=O)C2=CN1CC1CC1 (stereo not given)	-3.89% [at 7.66 µM] (inactive)
COc1cc(NC(=O)c2cc([N+](=O)[O-])ccc2Br)ccc1NC(=O)c1ccco1	inactive
CC(=C/c1ccccc1)/C=N/NC(=O)c1cc(C)oc1C	inactive
Cc1ccc(-c2cccc([C@H]3[C@@H]4C=CC[C@@H](C)[C@@H]4C(=O)N3Cc3ccccc3)c2)cc1	inactive
COc1ccccc1C(=O)NNC(=O)c1ccc(NC(=O)c2ccccc2)cc1	inactive
Cc1cc2oc(=O)cc(-c3ccccc3)c2c(C)c1/C=C/c1ccc(F)cc1	inactive
COc1ccc(-c2noc(-c3ccc(C)cc3)n2)cc1	inactive
COc1ccc2c(c1)O[C@@H](c1ccc3c(c1)OCO3)[C@H](OC(=O)NCc1ccco1)C2=O	inactive
CC1(OC(=O)C2CCCC2)C(=O)C=C2C=C(c3ccc(C#N)cc3)OC=C2C1=O (stereo not given)	inactive
C=CC(C1=CC(=O)C=CC1=O)c1ccc(O)cc1 (stereo not given)	inactive
CC(C)(C)OC(=O)NCCCC1=CC2=CC(=O)C(C)(OC(=O)c3ccco3)C(=O)C2=CO1 (stereo not given)	inactive
COc1cccc(/C=N/Nc2cc(C)nc(-c3ccccc3O)n2)c1O	inactive
CCOC(=O)C1=C(C(=O)OCC)C(C(=O)OCC)N(S(=O)(=O)C(F)(F)F)c2ccccc21 (stereo not given)	inactive
OC[C@H]1O[C@@H](n2cnc3c(NC4CCCC4)ncnc32)[C@H](O)[C@H]1O	inactive
CC(C)(Oc1ccc(C2CC2(Cl)Cl)cc1)C(=O)O (stereo not given)	inactive
C/C=C(\C)C(=O)OC1C(OC(=O)C2(C)OC2C)c2cc3ccc(=O)oc3cc2OC1(C)C (stereo not given)	inactive
COCOc1cc(OC)ccc1C(=O)/C=C/c1ccc([N+](=O)[O-])cc1	inactive
CC1(C)O[C@@H]2C[C@@H]3[C@H]4C[C@@H](F)C5=CC(=O)C=C[C@]5(C)[C@@]4(F)[C@@H](O)C[C@]3(C)[C@]2(C(=O)CO)O1	inactive
CCCCCCCCCCCCCCCCO	inactive
S=C(NCCCc1cnc[nH]1)NCCCN(Cc1ccc(Cl)c(Cl)c1)c1ccc(Br)cn1	inactive
